Target: OX2R (Homo sapiens, UniProt O43614)
Construct: expressed in transfected cells; host or cells: CHO (Chinese hamster ovary) cells constitutively expressing the OX2R gene and NFAT-luciferase (CHOOX2R)
Sequence (O43614 1-444): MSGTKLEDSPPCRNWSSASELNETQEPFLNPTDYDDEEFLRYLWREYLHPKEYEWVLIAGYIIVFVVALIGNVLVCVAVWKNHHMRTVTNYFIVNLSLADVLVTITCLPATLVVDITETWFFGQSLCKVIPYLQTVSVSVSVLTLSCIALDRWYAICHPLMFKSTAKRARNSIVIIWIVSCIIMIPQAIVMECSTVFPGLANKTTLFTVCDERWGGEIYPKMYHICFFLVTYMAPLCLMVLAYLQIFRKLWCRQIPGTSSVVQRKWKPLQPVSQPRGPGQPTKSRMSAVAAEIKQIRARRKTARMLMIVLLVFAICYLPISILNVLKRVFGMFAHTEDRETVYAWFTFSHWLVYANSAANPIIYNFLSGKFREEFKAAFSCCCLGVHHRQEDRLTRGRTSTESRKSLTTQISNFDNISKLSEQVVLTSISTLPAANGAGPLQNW
Test: Evaluation of agonist activity against OX2R (CHOOX2R cells, Fura2AM fluorescence, FDSS3000)
Assay type: cell-based
Details: test compound 10 μM; relative to orexin-A as full agonist (100%); CHOOX2R cells
Measured Response (10 μM (%)) accompanies every entry in the list below.
Write down the numeric answer in % and omit the unit.

// below: answered compounds
>>> measurement("COc1cc(C)c(-c2cccc(C(=O)N(C)C)c2)cc1S(=O)(=O)Nc1cccc(NCCNC(=O)c2sccc2Cl)c1 [Example 105]")
79
>>> measurement("COc1cccc(C(=O)NCCNc2cccc(NS(=O)(=O)c3cc(-c4ccccc4O)ccc3OC)c2)c1 [Example 22]")
21
>>> measurement("COc1ccc(C(=O)NCCNc2cccc(NS(=O)(=O)c3cc(-c4ccccc4F)ccc3OC)c2)cc1 [Example 3]")
50
>>> measurement("COc1ccccc1C(=O)NCCNc1cccc(NS(=O)(=O)c2cc(-c3cc(F)ccc3Cl)ccc2OC)c1 [Example 32]")
75
>>> measurement("COc1cccc(C(=O)NCCNc2cccc(NS(=O)(=O)c3cc(-c4cncc(OC)c4)ccc3OC)c2)c1 [Example 98]")
91
>>> measurement("COc1cccc(C(=O)NCCNc2cccc(NS(=O)(=O)c3cc(-c4ccccc4F)ccc3OC)c2)c1 [Example 2]")
67

From here, focus on the item given below.
The recorded Response (10 μM (%)) for COc1ccccc1C(=O)NCCNc1cccc(NS(=O)(=O)c2cc(-c3c(F)cccc3F)ccc2OC)c1 [Example 17] is 182

---

Form field: Response (1.0 μM (%)) (one value per entry).
Target: OX2R (Homo sapiens, UniProt O43614)
Construct: expressed in transfected cells; host or cells: CHO (Chinese hamster ovary) cells constitutively expressing the OX2R gene and NFAT-luciferase (CHOOX2R)
Sequence (O43614 1-444): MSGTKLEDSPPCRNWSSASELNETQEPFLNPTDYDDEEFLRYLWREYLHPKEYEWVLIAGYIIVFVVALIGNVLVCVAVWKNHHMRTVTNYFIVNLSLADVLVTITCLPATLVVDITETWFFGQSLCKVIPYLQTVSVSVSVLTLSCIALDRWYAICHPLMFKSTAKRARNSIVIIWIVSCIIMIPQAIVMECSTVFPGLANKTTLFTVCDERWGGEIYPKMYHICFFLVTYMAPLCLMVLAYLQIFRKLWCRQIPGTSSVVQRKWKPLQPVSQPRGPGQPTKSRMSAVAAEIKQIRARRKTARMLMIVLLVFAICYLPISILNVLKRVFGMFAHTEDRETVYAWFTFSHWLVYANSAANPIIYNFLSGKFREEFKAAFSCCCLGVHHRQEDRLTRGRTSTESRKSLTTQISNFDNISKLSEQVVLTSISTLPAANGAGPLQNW
Assay: Evaluation of agonist activity against OX2R (CHOOX2R cells, Fura2AM fluorescence, FDSS3000)
Assay type: cell-based
Conditions: test compound 1.0 μM; relative to orexin-A as full agonist (100%); CHOOX2R cells

These recorded examples may help you get a feel for the data.
>>> measurement("COc1ccccc1C(=O)NCCNc1cccc(NS(=O)(=O)c2cc(-c3cc(Cl)cc(Cl)c3)ccc2OC)c1 [Example 27]")
"<5%"
>>> measurement("COc1ccccc1C(=O)NCCNc1cccc(NS(=O)(=O)c2cc(-c3ccccc3Cl)ccc2OC)c1 [Example 10]")
"<5%"

# context switch: different compound, same Response (1.0 μM (%))
Record COc1ccc(Br)cc1C(=O)NCCNc1cccc(NS(=O)(=O)c2cc(-c3ccccc3F)ccc2OC)c1 [Example 4] , field Response (1.0 μM (%)): <5%
